Recorded % degradation of peptides in 24 h when incubated with liver microsomes by entry
Test: Stability of peptides in human liver microsomes
Type: in vitro ADME
Settings: human, microsomes, 24 h, 2 μM, pH 7.8
Where a SMILES comes first, the peptide text is derived from it. [ ]: non-standard residue; d: D form. ξ: configuration not given here. αMePhe(2,6-F2) = C[C@](N)(Cc1c(F)cccc1F)C(=O)O; ξαMePhe(2,6-F2) = CC(N)(Cc1c(F)cccc1F)C(=O)O; αMePhe(2-F) = C[C@](N)(Cc1ccccc1F)C(=O)O; ξαMePhe(2-F) = CC(N)(Cc1ccccc1F)C(=O)O; hArg = N=C(N)NCCCC[C@H](N)C(=O)O; Cit = NC(=O)NCCC[C@H](N)C(=O)O; ξαMeF = CC(N)(Cc1ccccc1)C(=O)O; Nle = CCCC[C@H](N)C(=O)O; Ac3c = NC1(C(=O)O)CC1; Aib = CC(C)(N)C(=O)O
Answer format: numeric, % implied, no suffix.

Ask: Entry CCCC[C@H](NC(=O)[C@H](CC(C)C)NC(=O)[C@H](CCC(N)=O)NC(=O)[C@@H](NC(=O)[C@H](CCC(=O)O)NC(=O)C(C)(C)NC(=O)[C@@H](NC(=O)C(C)(C)N)C(C)C)[C@@H](C)CC)C(=O)N[C@@H](Cc1c[nH]cn1)C(=O)N[C@@H](CCC(N)=O)C(=O)N[C@@H](CCCCNC(=N)N)C(=O)NC(C)(C)C(=O)N[C@@H](CCCCN)C(=O)NC(C)(Cc1ccccc1)C(N)=O (stereo partly shown) [Seq. ID. 10] (H-[Aib]V[Aib]EIQL[Nle]HQ[hArg][Aib]K[ξαMeF]-NH2) : reported % degradation of peptides in 24 h when incubated with liver microsomes = ?
Reply: 100

Ask: Entry CCCC[C@H](NC(=O)C(C)(Cc1ccccc1F)NC(=O)[C@H](CCC(N)=O)NC(=O)[C@@H](NC(=O)[C@H](CCC(=O)O)NC(=O)C(C)(C)NC(=O)[C@@H](NC(=O)C1(N)CC1)C(C)C)[C@@H](C)CC)C(=O)N[C@@H](Cc1c[nH]cn1)C(=O)N[C@@H](CCC(N)=O)C(=O)N[C@@H](CCCCNC(=N)N)C(=O)NC(C)(C)C(=O)N[C@@H](CCCCN)C(=O)NC(C)(Cc1c(F)cccc1F)C(N)=O (stereo partly shown) [Seq. ID. 95] (H-[Ac3c]V[Aib]EIQ[ξαMePhe(2-F)][Nle]HQ[hArg][Aib]K[ξαMePhe(2,6-F2)]-NH2) : reported % degradation of peptides in 24 h when incubated with liver microsomes = ?
Reply: 100

Ask: Entry CCCC[C@H](NC(=O)[C@](C)(Cc1ccccc1F)NC(=O)[C@H](CCC(N)=O)NC(=O)[C@@H](NC(=O)[C@H](CCC(=O)O)NC(=O)C(C)(C)NC(=O)[C@@H](NC(=O)C(C)(C)N)C(C)C)[C@@H](C)CC)C(=O)N[C@@H](Cc1c[nH]cn1)C(=O)N[C@@H](CCC(N)=O)C(=O)N[C@@H](CCCCNC(=N)N)C(=O)NC(C)(C)C(=O)N[C@@H](CCCNC(N)=O)C(=O)N[C@@](C)(Cc1c(F)cccc1F)C(N)=O [Seq. ID. 142] (H-[Aib]V[Aib]EIQ[αMePhe(2-F)][Nle]HQ[hArg][Aib][Cit][αMePhe(2,6-F2)]-NH2) : reported % degradation of peptides in 24 h when incubated with liver microsomes = ?
Reply: 82

Ask: Entry CCCC[C@H](NC(=O)C(C)(Cc1ccccc1F)NC(=O)[C@H](CCC(N)=O)NC(=O)[C@@H](NC(=O)[C@H](CCC(=O)O)NC(=O)C(C)(C)NC(=O)[C@@H](NC(=O)C(C)(C)N)C(C)C)[C@@H](C)CC)C(=O)N[C@@H](Cc1c[nH]cn1)C(=O)N[C@@H](CCC(N)=O)C(=O)N[C@@H](CCCNC(N)=O)C(=O)N[C@@H](C)C(=O)N[C@@H](CCCNC(N)=O)C(=O)NC(C)(Cc1ccccc1F)C(N)=O (stereo partly shown) [Seq. ID. 345] (H-[Aib]V[Aib]EIQ[ξαMePhe(2-F)][Nle]HQ[Cit]A[Cit][ξαMePhe(2-F)]-NH2) : reported % degradation of peptides in 24 h when incubated with liver microsomes = ?
Reply: 100
